- Study target: Recombinant human GST P1-1 (Homo sapiens, UniProt P09211)
- Construct: purchased EMD Biosciences, Inc., San Diego, Calif., U.S.A
- Sequence (P09211 2-210 limits assumed): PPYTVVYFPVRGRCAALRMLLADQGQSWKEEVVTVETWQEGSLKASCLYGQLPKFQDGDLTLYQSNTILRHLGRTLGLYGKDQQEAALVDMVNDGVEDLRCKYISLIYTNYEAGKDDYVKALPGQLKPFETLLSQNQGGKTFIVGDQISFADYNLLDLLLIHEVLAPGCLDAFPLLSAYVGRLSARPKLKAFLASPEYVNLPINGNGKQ
- Method: Inhibition of glutathione S-transferase isoenzyme GST P1-1
- Type: biochemical
- Condition label: diacid compounds (1A to 12A, TLK117, TLK137); GSH and CDNB at 2×Km, pH 6.5
Measure name: pIC50
Answers are plain numbers, as −log10 of the molar value.

Looking up N[C@@H](CCC(=O)N[C@@H](CSCc1ccc(Cl)cc1)C(=O)N[C@@H](C(=O)O)c1ccccc1)C(=O)O , I see its pIC50 listed as 7.28

====

- System: HL-60 human leukemia cell line
- Method: Cytotoxicity in HL-60 cells (CellTiter-Glo)
- Condition label: read-out: HL-60 CC50 (concentration that causes 50% growth inhibition); diethyl ester compounds (1B to 12B, TLK199); 72 hours
Measure name: CC50 (µM)
Numbers only, in µM.

Looking up N[C@@H](CCC(=O)N[C@@H](CSCc1ccc(Cl)cc1)C(=O)N[C@@H](C(=O)O)c1ccccc1)C(=O)O , I see its CC50 listed as 10
